# System: MS2 coat protein
# ASSAY COMMENT: apparent KD of MS2 coat protein; designed switch direction (-1 OFF switch, 1 ON switch): 1; higher = weaker reporter binding
# ASSAY CONDITIONS: input ligand: none
OBSERVATION TYPE: apparent KD of MS2 coat protein (µM)
Answers are plain numbers, in µM.

Each sequence below has a reported value. Please supply its apparent KD of MS2 coat protein.
1. GAGGGACAGACCAACAUGAGGAUCACCCAUGUCCUCGGAGGUCAGGAUAUCCGGAGGUAGCCGAAGGAGAAGGGACGGUGAACC [AK SSNG3-V2-30.1] (Eterna round: R96, puzzle: Same State NG 3)
2. GGUCCCUACGCACAGGAUAUUCUUUUGGCAACAUGAGGAUCACCCAUGUGUGCCGAUCAUGGUUAGAAGAAGGGUGGUAGGGACC [Usisus] (Eterna round: R96, puzzle: Same State 2)
3. GCCGCGUUUCGCGCCUACAUGAGGAUCACCCAUGUUUGUAGGCAGGAUAUCGUUUGCUUUGCAAGCGAGAAGGGCUGUUGUGGC [salish99_SSNG3_R04_015] (Eterna round: R96, puzzle: Same State NG 3)

0.197
0.0198
0.0507

Hi, could you look up apparent KD of MS2 coat protein for each item in my list?
1. UAAAUACAUGAGGAUCACCCAUGUCAAAAGACAUGAGGAUAUGUACAGUCUUCGGUCUGUACAGAAGGCAUGAAUA [salish99_ss1_r3_097] (Eterna round: R96, puzzle: Same State 1)
2. CUGAGGAAGAGAGAGGAUAUCCAAAGGAAAACAUGAGGAUCACCCAUGUAAAAGGUAGGAAAUUGGGAGAAGGCUCAAGAGAGAG [salish99-ss2-068] (Eterna round: R96, puzzle: Same State 2)

1: 0.461; 2: 0.0393
